- ASSAYED_TARGET: panel of 442 kinases (Homo sapiens)
- Construct: purchased Ambit Biosciences (scanMAXX KINOMEscan)
- TEST_PROTOCOL: biochemical
- Assay type: binding
- APPLIED_CONDITIONS: kinase MARK2; 1 µM; read-out: % of control at 1 µM
MEASURE: remaining activity at 1 µM (%)

* Nc1cc(C(F)(F)F)c(-c2cc(N3CCOCC3)nc(N3CCOCC3)n2)cn1 [Buparlisib] | 100
* COc1ncc(-c2ccc3nccc(-c4ccnnc4)c3c2)cc1NS(=O)(=O)c1ccc(F)cc1F [Omipalisib] | 100
* FC(F)c1nc2ccccc2n1-c1nc(N2CCOCC2)nc(N2CCOCC2)n1 [ZSTK474] | 57
* Cn1c(=O)n(-c2ccc(C(C)(C)C#N)cc2)c2c3cc(-c4cnc5ccccc5c4)ccc3ncc21 [Dactolisib] | 65

* * *

- ASSAYED_TARGET: panel of 442 kinases (Homo sapiens, UniProt Q9UK32)
- Construct: purchased Ambit Biosciences (scanMAXX KINOMEscan)
- Sequence (Q9UK32 whole entry): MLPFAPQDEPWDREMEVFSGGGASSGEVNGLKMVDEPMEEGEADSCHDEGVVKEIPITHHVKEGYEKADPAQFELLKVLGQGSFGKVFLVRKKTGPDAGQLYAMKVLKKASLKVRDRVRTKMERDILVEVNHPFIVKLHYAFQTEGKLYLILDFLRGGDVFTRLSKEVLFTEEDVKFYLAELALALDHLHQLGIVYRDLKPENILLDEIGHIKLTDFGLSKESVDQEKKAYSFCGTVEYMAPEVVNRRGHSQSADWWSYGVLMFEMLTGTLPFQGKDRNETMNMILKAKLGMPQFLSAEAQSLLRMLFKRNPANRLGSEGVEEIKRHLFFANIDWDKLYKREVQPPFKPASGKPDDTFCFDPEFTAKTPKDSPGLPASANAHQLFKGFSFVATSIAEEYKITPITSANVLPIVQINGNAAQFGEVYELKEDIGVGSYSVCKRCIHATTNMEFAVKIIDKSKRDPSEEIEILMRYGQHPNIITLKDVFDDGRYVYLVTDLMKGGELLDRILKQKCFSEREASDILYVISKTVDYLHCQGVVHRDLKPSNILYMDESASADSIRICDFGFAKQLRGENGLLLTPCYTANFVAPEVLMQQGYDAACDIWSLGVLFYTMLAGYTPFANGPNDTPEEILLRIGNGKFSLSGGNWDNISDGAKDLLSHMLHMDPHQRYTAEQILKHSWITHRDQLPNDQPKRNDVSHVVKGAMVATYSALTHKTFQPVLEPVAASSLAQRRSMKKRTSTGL
- TEST_PROTOCOL: biochemical
- Type: binding
- APPLIED_CONDITIONS: kinase RSK4(Kin.Dom.1-N-terminal); 1 µM; read-out: RSK4(Kin.Dom.1-N-terminal) (% of control at 1 µM)
MEASURE: remaining activity at 1 µM (%)

* Nc1cc(C(F)(F)F)c(-c2cc(N3CCOCC3)nc(N3CCOCC3)n2)cn1 | 99
* FC(F)c1nc2ccccc2n1-c1nc(N2CCOCC2)nc(N2CCOCC2)n1 | 81
* Cn1c(=O)n(-c2ccc(C(C)(C)C#N)cc2)c2c3cc(-c4cnc5ccccc5c4)ccc3ncc21 | 71
* COc1ncc(-c2ccc3nccc(-c4ccnnc4)c3c2)cc1NS(=O)(=O)c1ccc(F)cc1F | 88

* * *

In this section, each of the molecules is paired with its reported remaining activity at 1 µM.
- ASSAYED_TARGET: panel of 442 kinases (Homo sapiens)
- Construct: purchased Ambit Biosciences (scanMAXX KINOMEscan)
- TEST_PROTOCOL: biochemical
- Type: binding
- APPLIED_CONDITIONS: kinase PCTK3; 1 µM; read-out: % of control at 1 µM
MEASURE: remaining activity at 1 µM (%)

• FC(F)c1nc2ccccc2n1-c1nc(N2CCOCC2)nc(N2CCOCC2)n1 = 100
• Nc1cc(C(F)(F)F)c(-c2cc(N3CCOCC3)nc(N3CCOCC3)n2)cn1 = 100
• COc1ncc(-c2ccc3nccc(-c4ccnnc4)c3c2)cc1NS(=O)(=O)c1ccc(F)cc1F = 100
• Cn1c(=O)n(-c2ccc(C(C)(C)C#N)cc2)c2c3cc(-c4cnc5ccccc5c4)ccc3ncc21 = 94

* * *

- ASSAYED_TARGET: panel of 442 kinases (Homo sapiens)
- Construct: purchased Ambit Biosciences (scanMAXX KINOMEscan)
- TEST_PROTOCOL: biochemical
- Assay type: binding
- APPLIED_CONDITIONS: CAMK2G; 1 µM; read-out: % of control at 1 µM
MEASURE: remaining activity at 1 µM

* Cn1c(=O)n(-c2ccc(C(C)(C)C#N)cc2)c2c3cc(-c4cnc5ccccc5c4)ccc3ncc21 | 88%
* FC(F)c1nc2ccccc2n1-c1nc(N2CCOCC2)nc(N2CCOCC2)n1 | 100%
* Nc1cc(C(F)(F)F)c(-c2cc(N3CCOCC3)nc(N3CCOCC3)n2)cn1 | 100%
* COc1ncc(-c2ccc3nccc(-c4ccnnc4)c3c2)cc1NS(=O)(=O)c1ccc(F)cc1F | 100%

* * *

- ASSAYED_TARGET: panel of 442 kinases (Homo sapiens)
- Construct: purchased Ambit Biosciences (scanMAXX KINOMEscan)
- TEST_PROTOCOL: biochemical
- Assay type: binding
- APPLIED_CONDITIONS: kinase SNARK; 1 µM; read-out: SNARK (% of control at 1 µM)
MEASURE: remaining activity at 1 µM (%)

• Cn1c(=O)n(-c2ccc(C(C)(C)C#N)cc2)c2c3cc(-c4cnc5ccccc5c4)ccc3ncc21 = 34
• COc1ncc(-c2ccc3nccc(-c4ccnnc4)c3c2)cc1NS(=O)(=O)c1ccc(F)cc1F = 100
• Nc1cc(C(F)(F)F)c(-c2cc(N3CCOCC3)nc(N3CCOCC3)n2)cn1 = 100
• FC(F)c1nc2ccccc2n1-c1nc(N2CCOCC2)nc(N2CCOCC2)n1 = 100

* * *

- ASSAYED_TARGET: panel of 442 kinases (Homo sapiens)
- Construct: purchased Ambit Biosciences (scanMAXX KINOMEscan)
- TEST_PROTOCOL: biochemical
- Type: binding
- APPLIED_CONDITIONS: EPHB1; 1 µM; read-out: % of control at 1 µM
Parameter: remaining activity at 1 µM. Scope: all listed entries.
MEASURE: remaining activity at 1 µM (%)

* FC(F)c1nc2ccccc2n1-c1nc(N2CCOCC2)nc(N2CCOCC2)n1 | 99
* Cn1c(=O)n(-c2ccc(C(C)(C)C#N)cc2)c2c3cc(-c4cnc5ccccc5c4)ccc3ncc21 | 100
* Nc1cc(C(F)(F)F)c(-c2cc(N3CCOCC3)nc(N3CCOCC3)n2)cn1 | 88
* COc1ncc(-c2ccc3nccc(-c4ccnnc4)c3c2)cc1NS(=O)(=O)c1ccc(F)cc1F | 100

* * *

- ASSAYED_TARGET: panel of 442 kinases (Homo sapiens, UniProt Q00536)
- Construct: purchased Ambit Biosciences (scanMAXX KINOMEscan)
- Sequence (Q00536 whole entry): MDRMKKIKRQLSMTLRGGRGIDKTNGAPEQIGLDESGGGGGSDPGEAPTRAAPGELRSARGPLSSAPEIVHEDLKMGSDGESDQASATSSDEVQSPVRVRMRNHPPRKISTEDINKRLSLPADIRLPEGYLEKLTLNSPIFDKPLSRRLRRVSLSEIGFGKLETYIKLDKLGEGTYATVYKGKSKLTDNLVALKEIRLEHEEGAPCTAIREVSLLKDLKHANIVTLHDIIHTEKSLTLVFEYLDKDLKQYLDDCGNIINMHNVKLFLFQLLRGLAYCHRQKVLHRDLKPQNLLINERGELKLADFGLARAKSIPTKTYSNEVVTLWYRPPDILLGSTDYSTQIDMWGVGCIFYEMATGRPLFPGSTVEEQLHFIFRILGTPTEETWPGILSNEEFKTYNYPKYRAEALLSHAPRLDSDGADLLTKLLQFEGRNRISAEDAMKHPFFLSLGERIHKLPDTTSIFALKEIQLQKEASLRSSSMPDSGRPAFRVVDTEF
- TEST_PROTOCOL: biochemical
- Format: binding
- APPLIED_CONDITIONS: kinase PCTK1; 1 µM; read-out: % of control at 1 µM
MEASURE: remaining activity at 1 µM (%)

• FC(F)c1nc2ccccc2n1-c1nc(N2CCOCC2)nc(N2CCOCC2)n1 [ZSTK474] = 95
• Nc1cc(C(F)(F)F)c(-c2cc(N3CCOCC3)nc(N3CCOCC3)n2)cn1 [Buparlisib] = 79
• Cn1c(=O)n(-c2ccc(C(C)(C)C#N)cc2)c2c3cc(-c4cnc5ccccc5c4)ccc3ncc21 [Dactolisib] = 100
• COc1ncc(-c2ccc3nccc(-c4ccnnc4)c3c2)cc1NS(=O)(=O)c1ccc(F)cc1F [Omipalisib] = 96

* * *

- ASSAYED_TARGET: panel of 442 kinases (Homo sapiens, UniProt Q12866)
- Construct: purchased Ambit Biosciences (scanMAXX KINOMEscan)
- Sequence (Q12866 21-999): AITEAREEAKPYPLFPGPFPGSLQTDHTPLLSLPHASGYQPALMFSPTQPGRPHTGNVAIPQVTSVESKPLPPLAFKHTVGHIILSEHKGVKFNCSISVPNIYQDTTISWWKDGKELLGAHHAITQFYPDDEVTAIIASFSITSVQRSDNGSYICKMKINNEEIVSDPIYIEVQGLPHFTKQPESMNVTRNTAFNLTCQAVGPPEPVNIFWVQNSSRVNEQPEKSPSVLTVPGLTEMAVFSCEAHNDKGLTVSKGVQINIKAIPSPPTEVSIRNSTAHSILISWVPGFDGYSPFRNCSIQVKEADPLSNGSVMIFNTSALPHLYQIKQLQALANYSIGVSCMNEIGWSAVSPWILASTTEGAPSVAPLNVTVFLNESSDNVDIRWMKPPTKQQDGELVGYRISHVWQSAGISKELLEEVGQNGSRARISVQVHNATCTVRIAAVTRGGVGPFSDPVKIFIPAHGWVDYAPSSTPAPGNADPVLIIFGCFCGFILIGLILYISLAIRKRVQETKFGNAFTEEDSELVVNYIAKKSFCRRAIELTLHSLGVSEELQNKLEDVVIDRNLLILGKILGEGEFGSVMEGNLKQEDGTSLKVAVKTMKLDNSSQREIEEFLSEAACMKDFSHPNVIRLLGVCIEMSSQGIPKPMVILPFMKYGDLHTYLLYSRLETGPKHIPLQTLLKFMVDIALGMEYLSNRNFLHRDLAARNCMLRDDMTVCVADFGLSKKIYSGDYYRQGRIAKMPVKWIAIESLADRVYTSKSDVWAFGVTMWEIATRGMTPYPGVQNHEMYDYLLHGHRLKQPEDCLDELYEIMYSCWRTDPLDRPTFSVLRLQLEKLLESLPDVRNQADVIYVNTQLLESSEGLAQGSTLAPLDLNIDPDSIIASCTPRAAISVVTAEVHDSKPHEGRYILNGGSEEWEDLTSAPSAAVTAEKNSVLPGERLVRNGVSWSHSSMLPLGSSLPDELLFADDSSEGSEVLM
- TEST_PROTOCOL: biochemical
- Assay type: binding
- APPLIED_CONDITIONS: kinase MERTK; 1 µM; read-out: % of control at 1 µM
MEASURE: remaining activity at 1 µM (%)

- Cn1c(=O)n(-c2ccc(C(C)(C)C#N)cc2)c2c3cc(-c4cnc5ccccc5c4)ccc3ncc21 [Dactolisib]: 80
- Nc1cc(C(F)(F)F)c(-c2cc(N3CCOCC3)nc(N3CCOCC3)n2)cn1 [Buparlisib]: 98
- FC(F)c1nc2ccccc2n1-c1nc(N2CCOCC2)nc(N2CCOCC2)n1 [ZSTK474]: 84
- COc1ncc(-c2ccc3nccc(-c4ccnnc4)c3c2)cc1NS(=O)(=O)c1ccc(F)cc1F [Omipalisib]: 100

* * *

- ASSAYED_TARGET: panel of 442 kinases (Homo sapiens, UniProt P00519, E255K)
- Construct: purchased Ambit Biosciences (scanMAXX KINOMEscan)
- Sequence (P00519 whole entry E255K): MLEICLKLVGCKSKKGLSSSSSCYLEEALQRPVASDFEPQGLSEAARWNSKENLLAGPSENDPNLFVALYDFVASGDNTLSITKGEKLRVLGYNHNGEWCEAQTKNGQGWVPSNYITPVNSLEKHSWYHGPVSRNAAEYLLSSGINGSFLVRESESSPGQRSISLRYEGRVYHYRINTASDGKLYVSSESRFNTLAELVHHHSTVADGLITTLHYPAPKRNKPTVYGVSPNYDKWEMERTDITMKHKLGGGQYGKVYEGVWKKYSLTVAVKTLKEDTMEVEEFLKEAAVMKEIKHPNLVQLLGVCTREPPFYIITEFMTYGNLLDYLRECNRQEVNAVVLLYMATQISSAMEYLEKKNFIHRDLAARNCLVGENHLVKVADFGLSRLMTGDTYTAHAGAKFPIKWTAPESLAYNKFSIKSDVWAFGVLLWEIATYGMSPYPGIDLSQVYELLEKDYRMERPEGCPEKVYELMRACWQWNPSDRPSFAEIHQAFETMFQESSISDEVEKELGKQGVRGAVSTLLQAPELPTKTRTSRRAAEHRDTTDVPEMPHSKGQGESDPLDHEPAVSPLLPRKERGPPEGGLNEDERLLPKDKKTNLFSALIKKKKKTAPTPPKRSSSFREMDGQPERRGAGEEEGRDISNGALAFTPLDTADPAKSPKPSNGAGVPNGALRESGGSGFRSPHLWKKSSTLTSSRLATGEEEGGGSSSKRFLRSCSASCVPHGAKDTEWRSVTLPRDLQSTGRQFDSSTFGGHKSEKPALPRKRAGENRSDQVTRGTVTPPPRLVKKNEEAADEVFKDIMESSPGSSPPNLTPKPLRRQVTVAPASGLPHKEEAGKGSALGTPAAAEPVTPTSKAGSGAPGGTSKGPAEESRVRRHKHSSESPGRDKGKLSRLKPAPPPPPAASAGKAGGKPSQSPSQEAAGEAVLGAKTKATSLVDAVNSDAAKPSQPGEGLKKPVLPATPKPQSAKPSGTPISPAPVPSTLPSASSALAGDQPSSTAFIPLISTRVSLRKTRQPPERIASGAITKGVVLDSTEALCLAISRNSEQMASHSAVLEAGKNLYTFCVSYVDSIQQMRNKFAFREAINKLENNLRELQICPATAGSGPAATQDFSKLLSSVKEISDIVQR
- TEST_PROTOCOL: biochemical
- Format: binding
- APPLIED_CONDITIONS: ABL1(E255K)-phosphorylated; 1 µM; read-out: % of control at 1 µM
MEASURE: remaining activity at 1 µM

- COc1ncc(-c2ccc3nccc(-c4ccnnc4)c3c2)cc1NS(=O)(=O)c1ccc(F)cc1F [Omipalisib]: 95%
- Nc1cc(C(F)(F)F)c(-c2cc(N3CCOCC3)nc(N3CCOCC3)n2)cn1 [Buparlisib]: 74%
- FC(F)c1nc2ccccc2n1-c1nc(N2CCOCC2)nc(N2CCOCC2)n1 [ZSTK474]: 100%
- Cn1c(=O)n(-c2ccc(C(C)(C)C#N)cc2)c2c3cc(-c4cnc5ccccc5c4)ccc3ncc21 [Dactolisib]: 79%

* * *

remaining activity at 1 µM by entry:
- ASSAYED_TARGET: panel of 442 kinases (Homo sapiens, UniProt P43403)
- Construct: purchased Ambit Biosciences (scanMAXX KINOMEscan)
- Sequence (P43403 whole entry): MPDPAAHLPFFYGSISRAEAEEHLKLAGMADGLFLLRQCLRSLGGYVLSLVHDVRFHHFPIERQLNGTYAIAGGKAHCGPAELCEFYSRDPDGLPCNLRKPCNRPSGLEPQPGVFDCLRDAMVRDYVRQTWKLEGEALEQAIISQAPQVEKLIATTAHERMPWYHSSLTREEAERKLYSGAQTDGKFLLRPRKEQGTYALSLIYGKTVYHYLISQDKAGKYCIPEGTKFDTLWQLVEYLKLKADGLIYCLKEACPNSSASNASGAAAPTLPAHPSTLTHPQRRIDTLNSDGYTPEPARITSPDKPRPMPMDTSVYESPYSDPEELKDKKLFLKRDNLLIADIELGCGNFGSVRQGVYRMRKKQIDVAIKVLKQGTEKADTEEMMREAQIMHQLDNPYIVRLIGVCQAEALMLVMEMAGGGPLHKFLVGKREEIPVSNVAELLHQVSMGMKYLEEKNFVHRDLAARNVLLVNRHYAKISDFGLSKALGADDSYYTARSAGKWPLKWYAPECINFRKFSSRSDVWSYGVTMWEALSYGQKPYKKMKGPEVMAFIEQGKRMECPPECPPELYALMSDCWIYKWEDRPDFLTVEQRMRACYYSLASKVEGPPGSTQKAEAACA
- TEST_PROTOCOL: biochemical
- Type: binding
- APPLIED_CONDITIONS: kinase ZAP70; 1 µM; read-out: ZAP70 (% of control at 1 µM)
MEASURE: remaining activity at 1 µM (%)

• Nc1cc(C(F)(F)F)c(-c2cc(N3CCOCC3)nc(N3CCOCC3)n2)cn1 = 100
• Cn1c(=O)n(-c2ccc(C(C)(C)C#N)cc2)c2c3cc(-c4cnc5ccccc5c4)ccc3ncc21 = 99
• FC(F)c1nc2ccccc2n1-c1nc(N2CCOCC2)nc(N2CCOCC2)n1 = 94
• COc1ncc(-c2ccc3nccc(-c4ccnnc4)c3c2)cc1NS(=O)(=O)c1ccc(F)cc1F = 100
